measuredOn: T1, human MAdCAM expressed on cells (human, UniProt Q13477 19-382)
T1 construct: whole, on cells; also called MADCAM1
T1 sequence (looked up): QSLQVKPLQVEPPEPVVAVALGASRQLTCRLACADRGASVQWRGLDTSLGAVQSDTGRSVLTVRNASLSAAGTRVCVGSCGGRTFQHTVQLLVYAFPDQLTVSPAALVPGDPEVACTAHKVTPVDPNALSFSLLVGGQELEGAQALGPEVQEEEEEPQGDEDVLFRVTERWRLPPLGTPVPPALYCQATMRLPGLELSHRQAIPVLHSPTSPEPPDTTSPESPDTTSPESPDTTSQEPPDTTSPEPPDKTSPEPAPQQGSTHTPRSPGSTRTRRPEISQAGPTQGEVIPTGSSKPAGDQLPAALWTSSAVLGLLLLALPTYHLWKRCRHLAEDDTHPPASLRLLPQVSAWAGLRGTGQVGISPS
assayProcedure: cell binding
experimentalEndpoint: binding result

MAdCAM Antibody Table 1 Clone 66 (scFv) scFv: EVQLLESGGGLVQPGGSLRLSCAASGFTFSSYWMHWVRQAPGKGLEWVAAISYDGKYKDYEDSVKGRFTISRDNSKNTLYLQMNSLRAEDTAVYYCARENKQWLASFDYWGQGTLVTVSSGGGGSGGGGSGGGGSGGGGSDIQMTQSPSSLSASVGDRVTITCQASQDISNFVNWYQQKPGKAPKLLIYAANLRSGVPSRFSGSGSGTDFTLTISSLQPEDFATYYCQQANSFPVTFGPGTKVDIK = binds
MAdCAM Antibody Table 1 Clone 45 (scFv) scFv: EVQLLESGGGLVQPGGSLRLSCAASGFSVSSNYMSWVRQAPGKGLEWVAGISYDGSSKPYADSVKGRFTISRDNSKNTLYLQMNSLRAEDTAVYYCARSRGIAARPLQHWGQGTLVTVSSGGGGSGGGGSGGGGSGGGGSDIVMTQSPDSLAVSLGERATINCKSSQSVLYSSNNKNYLAWYQQKPGQPPKLLIYWASTRQSGVPDRFSGSGSGTDFTLTISSLQAEDVAVYYCHQYYGHPPTFGGGTKVEIK = binds

The origin of these recorded values is patent US20210206856A1.
